Test system: fresh rat hepatocytes
Measurement notes: Metabolism in fresh rat hepatocytes
Stated conditions: fresh rat hepatocytes; test item nominal concentration 45 μM
Measured property: % of compound metabolized after 60 minutes (%)
// return numeric value only (unit: %, not printed)

Data point: CC12CCC3C(C(=NO)CC4CC(=NOCCN)CCC43C)C1CCC2=O (mixture of isomers) ; % of compound metabolized after 60 minutes = 15

Noted for C[C@]12CCC(=NOCCN)CC1C(=O)C[C@@H]1[C@@H]2CC[C@]2(C)C(=O)CC[C@@H]12.Cl (mixture of isomers) [compd 22b, reference compound] : its % of compound metabolized after 60 minutes reads 95

Lab note: measured % of compound metabolized after 60 minutes of CNCCCON=C1CC[C@@]2(C)C(C1)C(=NOC)C[C@@H]1[C@@H]2CC[C@]2(C)C(=O)CC[C@@H]12.Cl (stereo partly drawn) was 41

###

Test system: anesthetized guinea-pig
Measurement notes: Inotropic effect and lethal dose, slow intravenous infusion (over 90 minutes) in anesthetized guinea-pig
Stated conditions: duration of the inotropic effect
Structures can show the parent of a compound that is named as a salt.
Below: a set of entries, each annotated with reported % decrease from Emax after 20 min from the end of the infusion.
Numbers only here, please. The scale is %.

C=C1C[C@H]2[C@@H]3CCC(=O)[C@@]3(C)CC[C@@H]2[C@@]2(C)CCC(=NOCCN)C[C@]12O (mixture of isomers) [I-bq, hydrochloride] : 10

The compound listed as C[C@]12CC[C@@H](/C=C\CCCN)CC1/C(=N/O)C[C@@H]1[C@@H]2CC[C@]2(C)C(=O)CC[C@@H]12.O=C(O)/C=C/C(=O)O (stereo partly shown) shows % decrease from Emax after 20 min from the end of the infusion equal to 29

What the record says about C#C[C@H]1C[C@@H]2[C@H](CC[C@]3(C)C(=O)CC[C@@H]23)[C@@]2(C)CCC(=NOCCN)C[C@H]12 (mixture of isomers) [I-bd, hydrochloride] : % decrease from Emax after 20 min from the end of the infusion is 16

Sample CON=C1CC2C3CCC(=O)C3(C)CCC2C2(C)CCC(=NOCCN)CC12 (mixture of isomers) [I-aw, hydrochloride] ; % decrease from Emax after 20 min from the end of the infusion observed: 100

###

Tested on: anesthetized guinea-pig
Measurement notes: Inotropic effect and lethal dose, slow intravenous infusion (over 90 minutes) in anesthetized guinea-pig
Stated conditions: slow i.v. infusion over 90 minutes
Structures can show the parent of a compound that is named as a salt.
Measured property: Dead/treated

C#C[C@H]1C[C@@H]2[C@H](CC[C@]3(C)C(=O)CC[C@@H]23)[C@@]2(C)CCC(=NOCCN)C[C@H]12 (mixture of isomers) [I-bd, hydrochloride] : 0/3

The reported Dead/treated of the compound CON=C1CC2C3CCC(=O)C3(C)CCC2C2(C)CCC(=NOCCN)CC12 (mixture of isomers) [I-aw, hydrochloride] was 0/5

Looking up CC12CCC3C(C(O)C(CO)C4CC(=NOCCN)CCC43C)C1CCC2=O (mixture of isomers) [I-ej, hydrochloride] , I found its Dead/treated recorded as 3/3

###

Lethal dose/ED80 (safety ratio) overview
System: anesthetized guinea-pig
Measurement notes: Inotropic effect and lethal dose, slow intravenous infusion (over 90 minutes) in anesthetized guinea-pig
Stated conditions: calculated in the died animals
Where a name gives a salt, the structure may show the parent alone.

Use the examples below as a reference point.
C[C@]12CCC(=NOCCN)CC1C(=O)C[C@@H]1[C@@H]2CC[C@]2(C)C(=O)CC[C@@H]12.Cl (mixture of isomers) [compd 22b, reference compound] : 22.6
CNCCCON=C1CC[C@@]2(C)[C@H](C1)[C@@H](CO)C[C@@H]1[C@@H]2CC[C@]2(C)C(=O)CC[C@@H]12 (mixture of isomers) [I-cl, hydrochloride] : 27.6
CC12CCC3C(C(=O)CC4CC(=NOCCN)CCC43C)C1CCC2=O (mixture of isomers) [I-br] : 32.4
C[C@]12CCC(=NOCCN)CC1[C@@H](NC=O)C[C@@H]1[C@@H]2CC[C@]2(C)C(=O)CC[C@@H]12.O=C(O)/C=C/C(=O)O (stereo partly shown) [I-be] : 32.8

The recorded Lethal dose/ED80 (safety ratio) for entry CC12CCC3C(C(O)C(CO)C4CC(=NOCCN)CCC43C)C1CCC2=O (mixture of isomers) [I-ej, hydrochloride] equals 50

CC12CCC3C(CC(CCO)C4CC(=NOCCN)CCC43C)C1CCC2=O (mixture of isomers) [I-am, hydrochloride] has a reported Lethal dose/ED80 (safety ratio) of 22.7

Documented Lethal dose/ED80 (safety ratio) of CNCCCON=C1CCC2(C)C(C1)C(NC=O)CC1C3CCC(=O)C3(C)CCC12 (mixture of isomers) [I-co, hydrochloride] : 47.4

###

# pIC50 per entry
System: Na+, K+-ATPase (Canis lupus familiaris, UniProt P50997)
Measurement notes: biochemical
Design: species or system dog
Stated conditions: dog kidney enzyme; read-out: Na+, K+-ATPase Inhibition IC50
Where a name gives a salt, the structure may show the parent alone.
Units for pIC50: none; it is -log10 of a concentration expressed in mol/L.

Would you please look over these solved cases?
CNCCCON=C1CCC2(C)C3CCC4(C)C(=O)CCC4C3CC3(CC3)C2C1 (mixture of isomers) [I-cp, hydrochloride] : 5.89
COCC1CC2CC(=NOCCN)CCC2(C)C2CCC3(C)C(=O)CCC3C12 (mixture of isomers) [I-ed, hydrochloride] : 4.42
CNCCCON=C1CCC2(C)C(C1)C(NC=O)CC1C3CCC(=O)C3(C)CCC12 (mixture of isomers) [I-co, hydrochloride] : 5.96
CNCCCOC1CCC2(C)C(C1)C(CO)CC1C3CCC(=O)C3(C)CCC12 (stereo not shown) [I-du] : 5.96
CCON=C1CC2C3CCC(=O)C3(C)CCC2C2(C)CCC(=NOCCN)CC12 (mixture of isomers) [I-ax, hydrochloride] : 5.77
C=C1C[C@@H]2[C@H](CC[C@]3(C)C(=O)CC[C@@H]23)[C@@]2(C)CC[C@@H](SCCCNC)C[C@H]12 [I-ea] : 5.55

Consider the additional compound presented here.
Entry CNCCCON=C1CC[C@@]2(C)[C@H](C1)[C@@H](CO)C[C@@H]1[C@@H]2CC[C@]2(C)C(=O)CC[C@@H]12 (mixture of isomers) [I-cl, hydrochloride] , pIC50 reported as 6.16

###

System: Na+, K+-ATPase (Canis lupus familiaris, UniProt P50997)
Measurement notes: biochemical
Parameters: species or system dog
Stated conditions: Na+, K+-ATPase Inhibition IC50
Structures can show the parent of a compound that is named as a salt.
Consider the following molecules and their measured pIC50 readings.
Reminder that pIC50 means the negative base-10 logarithm of the concentration expressed in mol/L.

Guide cases for pIC50, answers given:
C=CC1CC2C3CCC(=O)C3(C)CCC2C2(C)CCC(=NOCCN)CC12 (stereo not shown) [I-al, hydrochloride] : 6.28
CC12CCC3C(CC(=CC#N)C4CC(=NOCCN)CCC43C)C1CCC2=O (stereo not shown) [I-bi, hydrochloride] : 5.77
C=C1CC2C3CCC(=O)C3(C)CCC2C2(C)CCC(=NOCCCNC)CC12 (mixture of isomers) [I-ck] : 6.24
C[C@H]1C[C@H]2CC(=NOCCN)CC[C@]2(C)[C@H]2CC[C@]3(C)C(=O)CC[C@H]3[C@H]12 (mixture of isomers) [I-by, hydrochloride] : 6.19
C=C1C[C@H]2[C@@H]3CCC(=O)[C@@]3(C)CC[C@@H]2[C@@]2(C)CCC(=NOCCN)C[C@]12O (mixture of isomers) [I-bq, hydrochloride] : 7.00
C=C1C[C@@H]2[C@H](CC[C@]3(C)C(=O)CC[C@@H]23)[C@@]2(C)CC/C(=N\OCCN)CC12.Cl (stereo partly shown) [I-ai, hydrochloride] : 7.08

// sample C=C1C[C@H]2[C@@H]3CCC(=O)[C@@]3(C)CC[C@@H]2[C@@]2(C)CCC(=NOCCCNC)C[C@]12O (mixture of isomers) [I-ct, hydrochloride] , its pIC50 was 5.85

In plain terms, CNCCCON=C1CCC2(C)C(CC(=O)C3C4CCC(=O)C4(C)CCC32)C1 (mixture of isomers) [I-cu] has a documented pIC50 of 6.41

###

Test system: anesthetized guinea-pig
Measurement notes: Inotropic effect and lethal dose, slow intravenous infusion (over 90 minutes) in anesthetized guinea-pig
Stated conditions: duration of the inotropic effect
Structures can show the parent of a compound that is named as a salt.
Measured property: % decrease from Emax after 20 min from the end of the infusion (%)
Number only, in %; omit the unit.

C[C@]12CC[C@H]3[C@@H](C/C(=N\O)[C@@]4(O)CC(=NOCCN)CC[C@]34C)[C@@H]1CCC2=O.O=C(O)/C=C/C(=O)O [I-bo] : 82
C=C1C[C@@H]2[C@H](CC[C@]3(C)C(=O)CC[C@@H]23)[C@@]2(C)CC/C(=N\OCCN)CC12.Cl (stereo partly drawn) [I-ai] : 100
CNCCCON=C1CC[C@]2(C)[C@H]3CC[C@]4(C)C(=O)CC[C@H]4[C@@H]3C/C(=N\O)[C@@]2(O)C1 (mixture of isomers) [I-cr, hydrochloride] : 47
CC12CCC3C(CC(CO)C4CC(=NOCCN)CCC43C)C1CCC2=O (single isomer, unassigned) [I-ao, hydrochloride] : 100
CC12CCC3C(CC(CCO)C4CC(=NOCCN)CCC43C)C1CCC2=O (mixture of isomers) [I-am, hydrochloride] : 17

Turning now to a further molecule:
C[C@]12CC[C@H]3[C@@H](CC[C@@]4(O)CC(=NOCCN)CC[C@]34C)[C@@H]1CCC2=O (mixture of isomers) [I-ad] has a reported % decrease from Emax after 20 min from the end of the infusion of 100
